- Tested on: HL-60(TB) leukemia
- METHOD_SUMMARY: NCI-60 one-dose screen, 48 h
- EXPERIMENTAL_PARAMETERS: 10 µM unless noted
- Method: Growth inhibition of the HL-60(TB) human tumor cell line is measured as a screen for anti-cancer activity. Cells are grown in 96 well plates and exposed to the test compound for 48 hours. Compounds are tested at a single concentration, which is 10^-5 M for most compounds. The reported endpoint is percent growth (GI% or GIPRCNT), where numbers from 0 - 100% represent growth inhibition, and numbers from -100% - 0 represent cell death. For example, a value of 40 represents 60% growth inhibition. […]
Compounds without any hit were thinned out: in the full panel of roughly 83,000, 20% have a hit. Activity calls are given as the source filed them. How the source made its calls: active means growth percent below 10; inactive means the rest.
Please reply with one of these outcomes: Y (active), N (inactive)

Examples from the recorded data:
MOLECULE	EXPERIMENTAL_TARGET	CLASSIFICATION
Cn1cc(NC(=O)c2cc(NC(=O)c3ccc(C#Cc4ccccc4)cc3)cn2C)cc1C(=O)NCCCN1CCOCC1	HL-60(TB) leukemia	Y
CN(C)CCOc1ccc(C(=O)C2[C@H](c3ccc(Cl)cc3)[C@@H](c3ccccc3)NC23C(=O)Nc2ccccc23)cc1 (stereo partly specified)	HL-60(TB) leukemia	N
CC(=O)OC[C@@]1(C)C2CC[C@]3(C)C(CC=C4C5CC(C)(C)CC[C@]5(C(=O)Nc5ccc(F)cc5)CC[C@]43C)[C@@]2(C)C[C@@H](OC(C)=O)[C@@H]1OC(C)=O (stereo partly specified)	HL-60(TB) leukemia	N

QUERY: Record lookup: outcome of this test for C#C[C@]1(O)CC[C@H]2[C@@H]3CC=C4c5sc(Nc6cc(C)cc(C)n6)nc5CC[C@]4(C)[C@H]3CC[C@@]21C ?
RESULT: Y

QUERY: Record lookup: outcome of this test for C=C1CCC2C3(C)COC(c4cccs4)OC3CCC2(C)C1CC(Sc1ccccc1)C1=CCOC1=O (stereo unspecified) ?
RESULT: N

QUERY: Record lookup: outcome of this test for CCCn1c(=O)c2[nH]c(-c3ccc(OCc4nc5ccccc5[nH]4)cc3)nc2n(CCC)c1=O ?
RESULT: N
